The reported numbers originate from ChEMBL document CHEMBL4715829.

# Protocol notes: Cytotoxicity against human HepG2 cells assessed as cell viability at 12 uM incubated for 48 hrs by prestoblue assay
# Assay type: cell-based
# Condition context: read-out: Activity
Observable: viability at 48 h, 12 µM

Consider the compound COc1cccc2c1C(=O)c1c(O)c3c(c(O)c1C2=O)C[C@@](O)(C(=O)CO)C[C@@H]3O[C@H]1C[C@H](N)[C@H](O)[C@H](C)O1 [DOXORUBICIN] and give its recorded viability at 48 h, 12 µM.
< 10%

----------
# Protocol notes: Toxicity in Galleria mellonella larvae assessed as larval survival at 200 mg/kg measured after 96 hrs
# Type: organism-based
# Condition context: in vivo
Observable: survival at 96 h (%)
Reply with just the number (in %).

Consider the molecule CO[C@H]1/C=C/O[C@@]2(C)Oc3c(C)c(O)c4c(O)c(c(/C=N/N5CCN(Cc6cn(CCCCCCO[C@@H]7[C@@H](O[C@H]8O[C@H](CO)[C@@H](O)[C@H](N)[C@H]8O)[C@H](N)C[C@H](N)[C@H]7O[C@H]7O[C@H](CN)[C@@H](O)C[C@H]7N)nn6)CC5)c(O)c4c3C2=O)NC(=O)/C(C)=C\C=C\[C@H](C)[C@H](O)[C@@H](C)[C@@H](O)[C@@H](C)[C@H](OC(C)=O)[C@@H]1C.Cl.Cl.Cl.Cl.Cl and give its recorded survival at 96 h.
97
